For each record, write down the corresponding Exposure AUC.
# assay-comment: Pharmacokinetics of single intravenous and oral administration in dogs
# Type: in vivo
# condition-info: intravenous injection, 1 mg/kg
Structures can show the parent of a compound that is named as a salt.
// note: answer is a bare numeric in µM·h

Query block: // returns reported Exposure AUC for input CC(C)N1CCC(COc2cnc(-c3cccc(Cn4c(=O)ccn5c6cc(C#N)ccc6nc45)c3)nc2)CC1 [Hydrochloride of compound 25]
Result block: 1.23

Query block: // returns reported Exposure AUC for input CC(C)(O)CN1CCC(COc2cnc(-c3cccc(Cn4c(=O)ccn5c6cc(C#N)ccc6nc45)c3)nc2)CC1 [Hydrochloride of compound 39]
Result block: 1.34

* * *

Structures can show the parent of a compound that is named as a salt.
measure-name: pIC50
The meaning of pIC50 here: minus log10 of the concentration in molar units.

Query block: Value wanted: pIC50 (UniProt P08581) of entry CCN1CCC(COc2cnc(-c3cccc(Cn4c(=O)c(F)cn5c6cc(C#N)ccc6nc45)c3)nc2)CC1 [Hydrochloride of compound 13]
Sequence (P08581 956-1390): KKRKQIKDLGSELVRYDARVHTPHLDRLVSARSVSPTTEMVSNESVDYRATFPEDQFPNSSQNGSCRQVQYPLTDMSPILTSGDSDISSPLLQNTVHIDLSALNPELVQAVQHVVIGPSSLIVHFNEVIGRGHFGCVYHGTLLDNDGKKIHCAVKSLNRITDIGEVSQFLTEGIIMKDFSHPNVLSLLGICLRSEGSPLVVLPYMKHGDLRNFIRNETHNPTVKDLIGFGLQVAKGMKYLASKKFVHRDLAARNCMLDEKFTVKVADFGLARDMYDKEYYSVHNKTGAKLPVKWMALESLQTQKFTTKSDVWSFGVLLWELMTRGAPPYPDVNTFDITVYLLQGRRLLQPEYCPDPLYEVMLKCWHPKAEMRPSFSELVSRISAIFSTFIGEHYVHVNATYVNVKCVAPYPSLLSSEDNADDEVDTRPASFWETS
Result block: 7.38

Query block: Value wanted: pIC50 (UniProt P08581) of entry CN1CCC(COc2cnc(-c3cccc(Cn4c5c(ccc4=O)-c4cc(C#N)ccc4C5(F)F)c3)nc2)CC1 [Formate of compound 1]
Result block: 7.38

Query block: Value wanted: pIC50 (UniProt P08581) of entry COC1(COc2cnc(-c3cccc(Cn4c(=O)ccn5c6cc(C#N)ccc6nc45)c3)nc2)CCN(CCO)CC1 [Hydrochloride of compound 41]
Result block: 8.18

Query block: Value wanted: pIC50 (UniProt P08581) of entry CN1CCC(COc2cnc(-c3cccc(Cn4c(=O)ccc5c4nn4ccc(C#N)cc54)c3)nc2)CC1 [Hydrochloride of compound 27]
Result block: 7.75

Query block: Value wanted: pIC50 (UniProt P08581) of entry COC1(COc2cnc(-c3cccc(Cn4c(=O)ccn5c6cc(C#N)ccc6nc45)c3)nc2)CCN(C(C)C)CC1 [Hydrochloride of compound 38]
Result block: 8.12

Query block: Value wanted: pIC50 (UniProt P08581) of entry CN1CCC(O)(COc2cnc(-c3cccc(Cn4c(=O)ccn5c6cc(C#N)ccc6nc45)c3)nc2)CC1 [Hydrochloride of compound 34]
Result block: 8.55

Query block: Value wanted: pIC50 (UniProt P08581) of entry COC1(COc2cnc(-c3cccc(Cn4c(=O)ccn5c6cc(C#N)ccc6nc45)c3)nc2)CCN(C)CC1 [Hydrochloride of compound 36]
Result block: 8.13

Query block: Value wanted: pIC50 (UniProt P08581) of entry CN1CCC(COc2cnc(-c3cccc(Cn4c5c(ccc4=O)-c4cc(C#N)ccc4C5=O)c3)nc2)CC1 [Formate of compound 2]
Result block: 8.00

Query block: Value wanted: pIC50 (UniProt P08581) of entry CN1CC2(CC(Oc3cnc(-c4cccc(Cn5c(=O)ccn6c7cc(C#N)ccc7nc56)c4)nc3)C2)C1 [Hydrochloride of compound 28]
Result block: 7.24

Query block: Value wanted: pIC50 (UniProt P08581) of entry CC(C)N1CCC(COc2cnc(-c3cccc(Cn4c(=O)ccn5c6cc(C#N)ccc6nc45)c3)nc2)CC1 [Hydrochloride of compound 25]
Result block: 8.56

Query block: Value wanted: pIC50 (UniProt P08581) of entry CC(C)N1CCC(O)(COc2cnc(-c3cccc(Cn4c(=O)ccn5c6cc(C#N)ccc6nc45)c3)nc2)CC1 [Hydrochloride of compound 37]
Result block: 8.37

Query block: Value wanted: pIC50 (UniProt P08581) of entry N#Cc1ccc2nc3n(Cc4cccc(-c5ncc(OCC6CCN(C7COC7)CC6)cn5)c4)c(=O)ccn3c2c1 [Hydrochloride of compound 26]
Result block: 8.51

Query block: Value wanted: pIC50 (UniProt P08581) of entry CN1CCC(COc2cnc(-c3cccc(Cn4c5c(ccc4=O)-c4cc(F)ccc4C5=O)c3)nc2)CC1 [Formate of compound 3]
Result block: 7.80

Query block: Value wanted: pIC50 (UniProt P08581) of entry CCN1CCC(COc2cnc(-c3ccc(F)c(Cn4c(=O)ccn5c6cc(C#N)ccc6nc45)c3)nc2)CC1 [Hydrochloride of compound 29]
Result block: 8.20

Query block: Value wanted: pIC50 (UniProt P08581) of entry CN1CCC(COc2cnc(-c3cccc(Cn4c(=O)ccn5c6cc(C#N)ccc6nc45)c3)nc2)CC1 [Hydrochloride of compound 11]
Result block: 8.49

Query block: Value wanted: pIC50 (UniProt P08581) of entry CN1CCC(COc2cnc(-c3cccc(Cn4c(=O)ccn5c6cc(C#N)ccc6cc45)c3)nc2)CC1 [Hydrochloride of compound 10]
Result block: 7.80

Query block: Value wanted: pIC50 (UniProt P08581) of entry CCN1CCC(COc2cnc(-c3cccc(Cn4c(=O)ccn5c6cc(C#N)ccc6nc45)c3)nc2)CC1 [Hydrochloride of compound 24]
Result block: 8.69

Query block: Value wanted: pIC50 (UniProt P08581) of entry CN1CCC(COc2cnc(-c3cccc(Cn4c(=O)ccc5c6cc(C#N)ccc6sc54)c3)nc2)CC1 [Hydrochloride of compound 6]
Result block: 7.60

Query block: Value wanted: pIC50 (UniProt P08581) of entry CN1CCC(COc2cnc(-c3cccc(Cn4c(=O)ccn5c6ccc(C#N)cc6nc45)c3)nc2)CC1 [Hydrochloride of compound 9]
Result block: 7.66

Query block: Value wanted: pIC50 (UniProt P08581) of entry CN1CCC(COc2cnc(-c3cccc(Cn4c5c(ccc4=O)-c4cc(F)ccc4C5(F)F)c3)nc2)CC1 [Formate of compound 4]
Result block: 6.78

Query block: Value wanted: pIC50 (UniProt P08581) of entry CN1CCN(C(=O)Oc2cnc(-c3cccc(Cn4c5c(ccc4=O)-c4cc(C#N)ccc4C5=O)c3)nc2)CC1 [Hydrochloride of compound 20]
Result block: 7.59

Query block: Value wanted: pIC50 (UniProt P08581) of entry CS(=O)(=O)CCN1CCC(COc2cnc(-c3cccc(Cn4c(=O)ccn5c6cc(C#N)ccc6nc45)c3)nc2)CC1 [Hydrochloride of compound 42]
Result block: 7.82

Query block: Value wanted: pIC50 (UniProt P08581) of entry CN1CCC(COc2cnc(-c3cccc(Cn4c(=O)c(F)cc5c6cc(C#N)ccc6sc54)c3)nc2)CC1 [Hydrochloride of compound 8]
Result block: 7.67

Query block: Value wanted: pIC50 (UniProt P08581) of entry CC(C)N1CCC(COc2cnc(-c3cccc(Cn4c5c(ccc4=O)-c4cc(C#N)ccc4C5=O)c3)nc2)CC1 [Hydrochloride of compound 19]
Result block: 7.87

Query block: Value wanted: pIC50 (UniProt P08581) of entry N#Cc1ccc2nc3n(Cc4cccc(-c5ncc(OCC6CCN(CCO)CC6)cn5)c4)c(=O)ccn3c2c1 [Hydrochloride of compound 30]
Result block: 8.13
